So I've got a bunch of binders here, and I need their OD450 values.
tested-on: T1, murine CD22 protein (ACROBiosystems, SI2-M52Ha) (murine, UniProt P35329 22-708)
T1 construct: extracellular domain; also called murine CD22-ECD; murine CD22-ECD-His
T1 sequence (looked up): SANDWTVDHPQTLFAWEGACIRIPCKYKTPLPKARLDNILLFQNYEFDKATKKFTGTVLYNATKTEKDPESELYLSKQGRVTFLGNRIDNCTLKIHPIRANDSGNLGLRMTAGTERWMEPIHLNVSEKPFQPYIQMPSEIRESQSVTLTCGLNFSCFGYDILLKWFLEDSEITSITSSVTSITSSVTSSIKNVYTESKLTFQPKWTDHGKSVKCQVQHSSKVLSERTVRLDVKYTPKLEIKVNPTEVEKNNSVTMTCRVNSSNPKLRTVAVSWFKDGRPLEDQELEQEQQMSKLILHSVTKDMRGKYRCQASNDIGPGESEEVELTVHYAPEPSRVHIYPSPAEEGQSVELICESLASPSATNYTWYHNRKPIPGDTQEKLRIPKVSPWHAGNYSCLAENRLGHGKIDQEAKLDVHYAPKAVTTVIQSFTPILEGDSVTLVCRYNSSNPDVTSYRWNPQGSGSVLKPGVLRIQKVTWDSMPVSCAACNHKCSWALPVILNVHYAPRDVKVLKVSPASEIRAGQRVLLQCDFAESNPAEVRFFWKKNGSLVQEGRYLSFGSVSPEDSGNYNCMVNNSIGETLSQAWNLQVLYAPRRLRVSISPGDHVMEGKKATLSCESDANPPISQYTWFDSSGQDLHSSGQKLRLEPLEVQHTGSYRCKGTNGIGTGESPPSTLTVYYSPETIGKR
test-protocol: ELISA, coated murine CD22, 0.0001 nM Ab

Recorded result, F1.245.2 human-murine chimeric antibody (antibody, human IgG1, kappa, V domains shown, Chimeric, human IgG1 / kappa) VH: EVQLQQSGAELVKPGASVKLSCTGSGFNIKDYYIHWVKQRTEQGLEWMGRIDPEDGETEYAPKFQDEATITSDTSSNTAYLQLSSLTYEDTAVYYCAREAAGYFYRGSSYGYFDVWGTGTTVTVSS VL: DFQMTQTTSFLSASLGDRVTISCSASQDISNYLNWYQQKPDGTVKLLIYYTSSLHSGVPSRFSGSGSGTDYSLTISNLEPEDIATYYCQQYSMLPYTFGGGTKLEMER , OD450: 0.07 OD450

Recorded result, m971-hIgG1 (antibody, V domains shown, Positive control anti-human CD22 antibody; V regions from US 8,591,889 B on human IgG1 constant regions) VH: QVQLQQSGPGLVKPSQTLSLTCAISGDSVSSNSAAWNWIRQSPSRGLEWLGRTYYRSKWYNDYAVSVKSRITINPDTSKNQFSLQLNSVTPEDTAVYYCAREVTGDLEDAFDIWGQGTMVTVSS VL: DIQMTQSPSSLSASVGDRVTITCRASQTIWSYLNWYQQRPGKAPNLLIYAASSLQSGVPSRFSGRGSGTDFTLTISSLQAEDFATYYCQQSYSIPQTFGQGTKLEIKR , OD450: 0.07 OD450

Recorded result, F1.17.1 human-murine chimeric antibody (antibody, human IgG1, kappa, V domains shown, Chimeric, human IgG1 / kappa) VH: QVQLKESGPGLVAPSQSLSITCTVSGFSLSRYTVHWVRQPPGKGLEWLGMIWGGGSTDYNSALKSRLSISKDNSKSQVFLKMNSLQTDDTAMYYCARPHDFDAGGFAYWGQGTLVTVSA VL: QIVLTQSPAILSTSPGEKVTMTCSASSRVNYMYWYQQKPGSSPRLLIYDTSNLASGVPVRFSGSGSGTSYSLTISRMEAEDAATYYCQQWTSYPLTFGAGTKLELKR , OD450: 0.05 OD450

Recorded result, F2.173.9 human-murine chimeric antibody (antibody, human IgG1, lambda, V domains shown, Chimeric, human IgG1 / lambda) VH: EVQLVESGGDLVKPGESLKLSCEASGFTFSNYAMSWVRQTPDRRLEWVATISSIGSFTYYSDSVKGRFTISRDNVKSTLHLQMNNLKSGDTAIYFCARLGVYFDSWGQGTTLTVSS VL: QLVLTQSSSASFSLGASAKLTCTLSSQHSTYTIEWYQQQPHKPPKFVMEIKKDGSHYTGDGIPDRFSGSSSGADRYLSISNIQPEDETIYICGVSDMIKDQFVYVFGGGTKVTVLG , OD450: 0.05 OD450

Field: next binder
Recorded result, F2.42.9 human-murine chimeric antibody (antibody, human IgG1, lambda, V domains shown, Chimeric, human IgG1 / lambda; VL tied by name) VH: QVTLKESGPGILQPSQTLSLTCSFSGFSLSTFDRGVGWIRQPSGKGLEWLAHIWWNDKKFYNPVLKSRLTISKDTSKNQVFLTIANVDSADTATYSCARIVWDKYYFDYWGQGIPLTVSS VL: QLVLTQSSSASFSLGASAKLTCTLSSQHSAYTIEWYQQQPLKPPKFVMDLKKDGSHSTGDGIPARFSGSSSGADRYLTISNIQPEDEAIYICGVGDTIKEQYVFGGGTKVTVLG , OD450: 0.08 OD450
